tested on: Streptococci; test: Broth microdilution MIC, Streptococci (Example 11, Table 7); assay type: cell-based; settings: S. pneumoniae MMX 432, PRSP
Assay readout: MIC (µg/mL)
Write the answer as a number in µg/mL, unit excluded.

Short answer for CCCCCCCCCCNCCN[C@@]1(C)C[C@H](O[C@H]2[C@H](Oc3c4cc5cc3Oc3ccc(cc3Cl)[C@@H](O)[C@@H](NC(=O)[C@@H](CC(C)C)NC)C(=O)N[C@@H](CC(N)=O)C(=O)N[C@H]5C(=O)N[C@H]3C(=O)N[C@H](C(=O)N[C@H](C(=O)O)c5cc(O)c(CNCP(=O)(O)O)c(O)c5-c5cc3ccc5O)[C@H](O)c3ccc(c(Cl)c3)O4)O[C@H](CO)[C@@H](O)[C@@H]2O)O[C@@H](C)[C@H]1O : MIC was 0.03

Short answer for CN(C)c1cc(NC(=O)CNC(C)(C)C)c(O)c2c1C[C@H]1C[C@H]3[C@H](N(C)C)C(O)=C(C(N)=O)C(=O)[C@@]3(O)C(O)=C1C2=O : MIC was 0.03

Short answer for CN[C@H](CC(C)C)C(=O)N[C@H]1C(=O)N[C@@H](CC(N)=O)C(=O)N[C@H]2C(=O)N[C@H]3C(=O)N[C@H](C(=O)N[C@H](C(=O)O)c4cc(O)cc(O)c4-c4cc3ccc4O)[C@H](O)c3ccc(c(Cl)c3)Oc3cc2cc(c3O[C@@H]2O[C@H](CO)[C@@H](O)[C@H](O)[C@H]2O[C@H]2C[C@](C)(N)[C@H](O)[C@H](C)O2)Oc2ccc(cc2Cl)[C@H]1O : MIC was 0.25

Short answer for CC(=O)NC[C@H]1CN(c2ccc(N3CCOCC3)c(F)c2)C(=O)O1 : MIC was 1

These entries and their values trace back to patent US20200368312A1.
